tested on: MDA-MB-231 breast cancer cells; assay: MTT cell viability assay, MDA-MB-231; format: cell-based; settings: Homo sapiens, MDA-MB-231; Table 1 batch studies; MTT, 72 hours; Inactive = no measurable activity at 20 μM; read-out: IC50 Values in Breast Cancer Cell Lines, MDA-MB-231
ENDPOINT_NAME: IC50 (µM)

| COMPOUND | SYSTEM_UNDER_TEST | UNIT_TAG | IC50 |
| --- | --- | --- | --- |
| CC(C)n1ccc(-c2ccccc2NC(=O)c2ccc(OCCN3CCCCC3)cc2)n1 [LLM418-iPR] | MDA-MB-231 breast cancer cells | µM | 19 |
| O=C(Nc1ccccc1-c1ccn(C2CCC2)n1)c1ccc(OCCN2CCCCC2)cc1 [LLM418-CBU] | MDA-MB-231 breast cancer cells | µM | 49.7 |

[a] O=C(Nc1ccccc1-c1ccn[nH]1)c1ccc(OCCN2CCCCC2)cc1 [LLM418]
[b] CCn1ccc(-c2ccccc2NC(=O)c2ccc(OCCN3CCCCC3)cc2)n1 [LLM418-Et]
[c] O=C(Nc1cc(F)ccc1N1CCCC1)c1ccc(OCCCN2CCCCC2)cc1 [LLM4-S2]
## Task Put the items in order so that reported IC50 rises from first to last. Use the labels to give the ranking in the order requested.
## Result b, a, c

###

test system: SUM159 breast cancer cells; test: MTT cell viability assay, SUM159; assay type: cell-based; settings: Table 3 batch studies (independent from Table 1), 72 hours, Inactive = no measurable activity at 20 μM, read-out: SUM159 IC50
pIC50: −log10 of the molar value.
ENDPOINT_NAME: pIC50

| SMILES_STRING | pIC50 |
| --- | --- |
| CC1(C)O[C@@H]2[C@@H](CO[C@@]3(Cn4cc(-c5ccc(NC(=O)c6ccc(OCCN7CCCCC7)cc6)cc5)nn4)OC(C)(C)O[C@@H]23)O1 | 4.58 |

[P] O=C(Nc1cc(F)ccc1-n1cccc1)c1ccc(OCCCN2CCCCC2)cc1
[Q] CC1(C)O[C@@H]2[C@@H](CO[C@@]3(Cn4cc(-c5cccc(NC(=O)c6ccc(OCCN7CCCCC7)cc6)c5)nn4)OC(C)(C)O[C@@H]23)O1
## Task Looking only at measured pIC50, which entry is lower, P or Q ? Output the label that corresponds to your choice.
## Result P

###

test system: SUM159 breast cancer cells; test: MTT cell viability assay, SUM159; type: cell-based; conditions: Table 1 batch studies, 72 hours, Inactive = no measurable activity at 20 μM
ENDPOINT_NAME: IC50 Values in Breast Cancer Cell Lines, SUM159

| SMILES_STRING | OBS_VALUE |
| --- | --- |
| O=C(Nc1ccc(-c2cn([C@@H]3OC[C@@H](O)[C@H](O)[C@H]3O)nn2)cc1)c1ccc(OCCN2CCCCC2)cc1 | Inactive |
| O=C(Nc1ccccc1-c1cn([C@@H]2OC[C@@H](O)[C@H](O)[C@H]2O)nn1)c1ccc(OCCN2CCCCC2)cc1 | Inactive |
| CC(C)[C@H]1COC(=O)N1c1ccc(C(=O)Nc2cccc(-c3cc[nH]n3)c2)cc1 | Inactive |
| O=C(Nc1cccc(-c2cn([C@@H]3OC[C@@H](O)[C@H](O)[C@H]3O)nn2)c1)c1ccc(OCCN2CCCCC2)cc1 | Inactive |

###

tested on: MDA-MB-231 breast cancer cells; assay: MTT cell viability assay, MDA-MB-231; assay type: cell-based; conditions: Table 3 batch studies (independent from Table 1); MTT, 72 hours; Inactive = no measurable activity at 20 μM; read-out: MDA-MB-231 IC50
ENDPOINT_NAME: IC50 (µM)

| MOLECULE | SYSTEM_UNDER_TEST | UNIT_TAG | OBS_VALUE |
| --- | --- | --- | --- |
| CC1(C)O[C@@H]2[C@@H](CO[C@@]3(Cn4cc(-c5cccc(NC(=O)c6ccc(OCCN7CCCCC7)cc6)c5)nn4)OC(C)(C)O[C@@H]23)O1 [LS-TF-3P] | MDA-MB-231 breast cancer cells | µM | 67 |

[A] O=C(Nc1cc(F)ccc1-n1cccc1)c1ccc(OCCCN2CCCCC2)cc1 [LLM4]
[B] CC1(C)O[C@@H]2[C@@H](CO[C@@]3(Cn4cc(-c5ccc(NC(=O)c6ccc(OCCN7CCCCC7)cc6)cc5)nn4)OC(C)(C)O[C@@H]23)O1 [LS-TF-4P]
## Task Could you tell me which of these two has the smaller IC50 figure? First: A Second: B Please reply using the label of the selected record.
## Result B
(B: 18.4 µM, A: 47.7 µM)

###

test system: MDA-MB-231 Bone Metastatic breast cancer cells; experiment: MTT cell viability assay, MDA-MB-231 Bone Metastatic; assay type: cell-based; details: Homo sapiens, MDA-MB-231, Table 1 batch studies, 72 hours, read-out: IC50 Values in Breast Cancer Cell Lines, MDA-MB-231 Bone Metastatic
ENDPOINT_NAME: IC50 (µM)

[A] O=C(Nc1ccccc1-c1ccn[nH]1)c1ccc(OCCN2CCCCC2)cc1 [LLM418]
[B] O=C(Nc1ccccc1-c1ccn(CC2CCC2)n1)c1ccc(OCCN2CCCCC2)cc1 [LLM418-MCBu]
## Task Hi team, can someone confirm which has the larger IC50: A or B ? Thanks. To answer, give the label that identifies your chosen option.
## Result A
(A: 23.7 µM, B: 7.3 µM)

###

tested on: SUM159 breast cancer cells; experiment: MTT cell viability assay, SUM159; type: cell-based; conditions: SUM159, Table 3 batch studies (independent from Table 1), 72 hours, Inactive = no measurable activity at 20 μM, read-out: SUM159 IC50
ENDPOINT_NAME: IC50 (µM)

| MOLECULE | IC50, µM |
| --- | --- |
| O=C(Nc1cc(F)ccc1N1CCCC1)c1ccc(OCCCN2CCCCC2)cc1 | 24.7 |
| O=C(Nc1ccccc1-c1ccn[nH]1)c1ccc(OCCN2CCCCC2)cc1 | 16.3 |
| O=C(Nc1ccccc1-c1ccn(C2CCC2)n1)c1ccc(OCCN2CCCCC2)cc1 | 15.1 |
| O=C(Nc1ccccc1-n1cccc1)c1ccc(OCCCN2CCCCC2)cc1 | 58.7 |
| O=C(Nc1ccccc1-c1ccn(CC(F)(F)F)n1)c1ccc(OCCN2CCCCC2)cc1 | 16 |
| O=C(Nc1ccccc1-c1ccn(CC2CCC2)n1)c1ccc(OCCN2CCCCC2)cc1 | 10.5 |
| O=C(Nc1ccccc1N1CCCC1)c1ccc(OCCCN2CCCCC2)cc1 | 46.1 |
| CC(C)n1ccc(-c2ccccc2NC(=O)c2ccc(OCCN3CCCCC3)cc2)n1 | 9.1 |

[P] CCn1ccc(-c2ccccc2NC(=O)c2ccc(OCCN3CCCCC3)cc2)n1
[Q] Cc1c(-c2ccc(O)cc2)n(Cc2ccc(OCCN3CCCCCC3)cc2)c2ccc(O)cc12 [Bazedoxifene, bazedoxifene, reference compound]
## Task Compare P and Q and name the one whose reported IC50 is smaller. Respond with the label that goes with your answer.
## Result Q
(Q: 7.1 µM, P: 17.4 µM)

###

Tested on: MDA-MB-231 Bone Metastatic breast cancer cells
Assay: MTT cell viability assay, MDA-MB-231 Bone Metastatic
Format: cell-based
Conditions: Homo sapiens, MDA-MB-231, Table 3 batch studies (independent from Table 1), 72 hours, read-out: MDA-MB-231 Bone Metastatic IC50
Procedure: Cell viability of MDA-MB-231 breast cancer cells was evaluated by using the MTT assay in triple replicates in one experiment and repeated for three times (FIG. 3). […] The cells were incubated at 37° C. for a period of 24 hours. […] After removal of medium, the MTT dye was dissolved with spectrophotometric grade DMSO and the absorbance was read at 570 nm. The IC50 value is determined by interpolation based on the absorbance value halfway between positive and negative controls.
ENDPOINT_NAME: IC50 (µM)

Some molecules with recorded IC50:
| SMILES_STRING | ENDPOINT_NAME | UNIT_TAG | OBS_VALUE |
| --- | --- | --- | --- |
| CCn1ccc(-c2ccccc2NC(=O)c2ccc(OCCN3CCCCC3)cc2)n1 | IC50 | µM | 16.8 |
| O=C(Nc1ccccc1-c1ccn(C2CCC2)n1)c1ccc(OCCN2CCCCC2)cc1 | IC50 | µM | 21.1 |
| CC(C)n1ccc(-c2ccccc2NC(=O)c2ccc(OCCN3CCCCC3)cc2)n1 | IC50 | µM | 29.7 |

[a] O=C(Nc1ccccc1-c1ccn[nH]1)c1ccc(OCCN2CCCCC2)cc1
[b] O=C(Nc1ccccc1-c1ccn(CC2CCC2)n1)c1ccc(OCCN2CCCCC2)cc1
## Task Task for the reader: decide whether a or b has the larger IC50. Which one? Tell me its label.
## Result a
(a: 23.7 µM, b: 7.3 µM)
